Kd values, listed per item
Target: T1, rat MerTK (rat, UniProt P57097 23-496, limits assumed)
T1 construct: Soluble analyte in SPR
T1 sequence (looked up): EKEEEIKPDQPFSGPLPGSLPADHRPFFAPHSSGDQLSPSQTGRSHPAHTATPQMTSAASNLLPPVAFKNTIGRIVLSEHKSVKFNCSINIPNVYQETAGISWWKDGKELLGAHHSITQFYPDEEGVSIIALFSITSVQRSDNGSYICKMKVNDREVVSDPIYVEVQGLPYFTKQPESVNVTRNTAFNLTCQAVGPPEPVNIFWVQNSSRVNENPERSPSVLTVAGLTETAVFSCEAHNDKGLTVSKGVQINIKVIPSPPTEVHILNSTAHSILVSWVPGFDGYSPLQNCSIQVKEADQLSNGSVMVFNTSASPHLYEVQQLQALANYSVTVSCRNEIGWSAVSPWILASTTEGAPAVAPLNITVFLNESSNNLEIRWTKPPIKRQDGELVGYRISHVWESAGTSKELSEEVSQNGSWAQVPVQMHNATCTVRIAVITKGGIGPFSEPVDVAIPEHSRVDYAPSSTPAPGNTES
Experiment: SPR BIAcore T200, Ab captured, 37C
// return numeric value only (unit: nM, not printed)

Examples from the recorded data:
h9E3.FN.v16 (antibody, V domains shown, Humanized, human IgG1; also called 9E3.FN Humanized polished mAb) VH: EVQLVESGGGLIQPGGSLRLSCAASGFSLSSNAMSWVRQAPGKGLEWVSIISSSGSTYSASWAKGRFTISKDNSKNTLYLQMNSLRAEDTAVYYCARVGFFVGYGAYDYGIIHRLDLWGQGTLVTVSS VL: DIQLTQSPSTLSASVGDRVTITCQSSKSIYNNNWLSWYQQKPGKPPKLLIYDASDLASGVPSRFSGSGSGTEFTLTISSLQPDDFATYYCAGGYSGDSDYAFGGGTKVEIK : 3
h10F7.v16 (antibody, V domains shown, Humanized, human IgG1; also called 10F7 Fully Humanized; 10F7 Humanized polished mAb) VH: EVQLVESGGGLVQPGGSLRLSCAVSGFSLSGYAMSWVRQAPGKGLEYIGVISSSGSSYYPSWAKGRFTISKDNSKNTLYLQMGSLRAEDMAVYYCARVQFYVGYAVYGYGIIDRLDLWGQGTLVTVSS VL: DIVLTQSPDSLAVSLGERATINCQSSKSVYNNNWLSWYQQKPGQPPKLLIYRASTLESGVPDRFSGSGSGTDFTLTISSLQAEDVAVYFCAGGYSSSSSANAFGGGTKVEIK : 3.2
h10F7.v1 (antibody, V domains shown, also called h10F7.V1 (Parent); 10F7 Humanized mAb V1) VH: EQQLVESGGGLVQPGGSLRLSCAVSGFSLSGYAMSWVRQAPGKGLEYIGVISSSGSSYYPSWAKGRFTISKDSSKNTVYLQMGSLRAEDMAVYFCARVQFYVGYAVYGYGIIDRLDLWGQGTLVTVSS VL: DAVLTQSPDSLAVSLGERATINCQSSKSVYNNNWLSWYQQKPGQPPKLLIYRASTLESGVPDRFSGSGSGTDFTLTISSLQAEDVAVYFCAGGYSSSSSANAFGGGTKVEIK : 4.1

# evaluate next
Any idea what Kd was measured for h9E3.FN.v1 (antibody, V domains shown, also called h9E3.FN.V1 (Parent); 9E3.FN Humanized mAb V1) VH: EQQLVESGGGLIQPGGSLRLSCAVSGFSLSSNAMSWVRQAPGKGLEWIGIISSSGSTYSASWAKGRFTISKDSSKNTMYLQMNSLRAEDTAVYFCARVGFFVGYGAYDYGIIHRLDLWGQGTLVTVSS VL: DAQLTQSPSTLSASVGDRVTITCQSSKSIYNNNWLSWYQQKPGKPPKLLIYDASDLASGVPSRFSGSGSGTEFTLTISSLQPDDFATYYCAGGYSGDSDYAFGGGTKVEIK ?
3.8
